Test system: Mycobacterium tuberculosis
procedureText: Cornell M. t heat shock assay
Format: functional, organism-based
assayConditions: Mycobacterium tuberculosis
measuredQuantity: pIC50
Hey, just a heads up that pIC50 is the negative log base 10 of the concentration in molar.

molecule	targetEntity	pIC50
Cc1ccc(CN(CCCn2ccnc2)Cc2c(F)cccc2F)s1.O=C(O)CC(O)(CC(=O)O)C(=O)O	Mycobacterium tuberculosis	4.63

I have this molecule here, Cc1nc(C2CCNCC2)cc(N(C)Cc2cc3cc(F)ccc3[nH]2)n1 , and I need its recorded pIC50. 4.14

I have this molecule here, Cc1ccc(S(=O)(=O)NCCc2ccoc2)s1 , and I need its recorded pIC50. 4.51

I have this molecule here, Cl.NC1CCc2nc(-c3cccnc3)nc(Nc3ccc(F)cc3)c2C1 (stereo unspecified) , and I need its recorded pIC50. 5.19

I have this molecule here, CSc1nccc(-c2cccc(-c3ccn(CC4COCCO4)n3)c2)n1 (stereo unspecified) , and I need its recorded pIC50. 4.39

I have this molecule here, Cc1nnc(NCc2ccccc2F)c(C#N)c1C , and I need its recorded pIC50. 4.10

I have this molecule here, O=c1[nH]c(CCN2CCCC2Cn2cncn2)nc2ccccc12 (stereo unspecified) , and I need its recorded pIC50. 4.46

----------
Collected pIC50 values appear next to each entry.
Test system: Leishmania donovani
procedureText: Leishmania intramacrophage assay
Format: functional, organism-based
assayConditions: Leishmania donovani
pIC50: −log10 of the molar value.

compound	pIC50
FC1(F)CCN(Cc2ccncc2)CC12CCN(Cc1ccccn1)C2 (configuration not stated)	< 4.30
COCC(=O)Nc1ccnn1-c1ccc(Cl)cc1	4.87
Cc1ncc(CNc2cnccc2CO)s1	< 4.30
CN(C)CCN(C)C(=O)Cn1cccc2cc(-c3ccc(F)cc3)nc1-2	5.03

I have this compound here, Cc1sc2nc(CCN)nc(N3CCC(N4CCCC4)CC3)c2c1C , and I need its recorded pIC50. < 4.30

----------
Collected pIC50 values appear next to each entry.
Tested on: Plasmodium falciparum
procedureText: Calibr Malaria Delayed Death Assay SOP
Assay type: functional, organism-based
Please reply with the value in numeric form only.

molecule	measuredQuantity	observedResult
CN1CCC2(Cc3ccccc3CN(C(=O)Cc3cccc(Cl)c3)C2)C1 (centres undefined)	pIC50	6.082
CCCn1ncc(-c2ccnc(NC3CC(C)(C)NC(C)(C)C3)n2)c1C	pIC50	6.559
Cc1ncc(CNCCO)c2cc(C(=O)c3ccc(Br)cc3)oc12.Cl	pIC50	6.356
Cc1cccc(C)c1Nc1noc2c1CN(C(=O)c1ccnn1C)CC2	pIC50	6.86
COc1ccc(NC(=O)Nc2cnc(N3CCN(C)CC3)nc2)cc1Cl	pIC50	6.139
COc1ccc(CN2CC[C@@H](O)[C@@H]2Cc2ccccc2)cc1.O=C(O)C(F)(F)F	pIC50	5.901
CCOc1cccc(CN2CCCC(Nc3ccc(F)cc3)C2)c1O (centres undefined)	pIC50	6.217
NCC1Cc2cc(-c3nccc(N4CCC(O)CC4)n3)cc(F)c2O1 (centres undefined)	pIC50	6.277

# evaluate next
I have this molecule here, CC(C)c1n[nH]c(C(=O)Nc2ccccn2)c1Br , and I need its recorded pIC50. 6.515

----------
procedureText: microbe, parasite or virus in culture
assayConditions: Mycobacterium tuberculosis, 72 h, read-out: pIC50 (converted)
Threshold-based label: IC50 under 200 µM gives 1.0, IC50 not under 200 µM gives 0.0.

Field: example entries. Status: answers known.
compound	assignedCategory
CC(C)n1ccc(CC(=O)N2CCCC2)n1	0.0
C=C(C)CN1CCC(NC(=O)N2CCSCC2)CC1	0.0
COC(=O)COc1cc(NCc2c(C)noc2C)c(Cl)cc1C	1.0
CN1N=C(C(=O)NCc2csc(Br)c2)CCC1=O	1.0
CC1CN(CCC(=O)NC(N)=O)CCO1 (configuration not stated)	1.0
CN(C)S(=O)(=O)c1ccc(F)c(NC(=O)COCC2CC2)c1	1.0
O=C(Cn1cccn1)NCCc1ccc2c(c1)OCO2	0.0
CC(=O)c1ccc(Cl)c(S(=O)(=O)NC(CN)C2CC2)c1 (configuration not stated)	1.0

Just wondering, is IC50 of COc1ccc(C(C)CO)cc1 (configuration not stated) below 200 µM? 0.0

Just wondering, is IC50 of CN(C(=O)CN)c1ccc(-c2ccccc2)cc1 below 200 µM? 0.0

Just wondering, is IC50 of CN1CC(=O)Nc2cccnc21 below 200 µM? 1.0

Just wondering, is IC50 of NCCNS(=O)(=O)c1ccc(F)c(C(F)(F)F)c1 below 200 µM? 0.0

Just wondering, is IC50 of Cc1ccc(C(=O)N2CC(Oc3ccccc3C)C2)s1 below 200 µM? 1.0

Just wondering, is IC50 of Cc1cccc(NCCCNC(=O)c2cccs2)n1 below 200 µM? 0.0
